Data credit: ChEMBL document CHEMBL1154746

# System: Staphylococcus aureus
# PROCEDURE TEXT: Antimicrobial activity against Staphylococcus aureus after 24 hrs by agar dilution technique
# Assay type: functional
PROPERTY NAME: MIC

{"COMPOUND STRUCTURE": "Cc1c2c(nn1CC(=O)N/N=C/c1ccsc1)-c1ccccc1S(=O)(=O)N2C", "EXPERIMENTAL VALUE": "61 µg/mL"}
{"COMPOUND STRUCTURE": "Cc1c2c(nn1CC(=O)N/N=C/c1ccccc1[N+](=O)[O-])-c1ccccc1S(=O)(=O)N2C", "EXPERIMENTAL VALUE": "> 200 µg/mL"}
{"COMPOUND STRUCTURE": "CN(C)[C@@H]1C(O)=C(C(N)=O)C(=O)[C@@]2(O)C(O)=C3C(=O)c4c(O)cccc4[C@@](C)(O)[C@H]3C[C@@H]12", "EXPERIMENTAL VALUE": "0.78 µg/mL"}
{"COMPOUND STRUCTURE": "Cc1c2c(nn1CC(=O)N/N=C/c1ccccc1Cl)-c1ccccc1S(=O)(=O)N2C", "EXPERIMENTAL VALUE": "> 200 µg/mL"}
{"COMPOUND STRUCTURE": "Cc1c2c(nn1CC(=O)N/N=C/c1ccccc1)-c1ccccc1S(=O)(=O)N2C", "EXPERIMENTAL VALUE": "> 200 µg/mL"}
{"COMPOUND STRUCTURE": "Cc1c2c(nn1CC(=O)N/N=C/c1ccc(Cl)c(Cl)c1)-c1ccccc1S(=O)(=O)N2C", "EXPERIMENTAL VALUE": "> 200 µg/mL"}
{"COMPOUND STRUCTURE": "Cc1c2c(nn1CC(=O)N/N=C/c1cccnc1)-c1ccccc1S(=O)(=O)N2C", "EXPERIMENTAL VALUE": "> 200 µg/mL"}
{"COMPOUND STRUCTURE": "COc1ccc(/C=N/NC(=O)Cn2nc3c(c2C)N(C)S(=O)(=O)c2ccccc2-3)c(OC)c1", "EXPERIMENTAL VALUE": "> 200 µg/mL"}
{"COMPOUND STRUCTURE": "Cc1c2c(nn1CC(=O)N/N=C/c1cccc([N+](=O)[O-])c1)-c1ccccc1S(=O)(=O)N2C", "EXPERIMENTAL VALUE": "> 200 µg/mL"}
{"COMPOUND STRUCTURE": "Cc1c2c(nn1CC(=O)N/N=C/c1ccc(Cl)cc1)-c1ccccc1S(=O)(=O)N2C", "EXPERIMENTAL VALUE": "> 200 µg/mL"}
{"COMPOUND STRUCTURE": "Cc1c2c(nn1CC(=O)N/N=C/c1cccs1)-c1ccccc1S(=O)(=O)N2C", "EXPERIMENTAL VALUE": "55 µg/mL"}
{"COMPOUND STRUCTURE": "Cc1c2c(nn1CC(=O)N/N=C/c1ccc([N+](=O)[O-])cc1)-c1ccccc1S(=O)(=O)N2C", "EXPERIMENTAL VALUE": "> 200 µg/mL"}
{"COMPOUND STRUCTURE": "Cc1c2c(nn1CC(=O)N/N=C/c1ccc(Cl)cc1Cl)-c1ccccc1S(=O)(=O)N2C", "EXPERIMENTAL VALUE": "> 200 µg/mL"}
{"COMPOUND STRUCTURE": "Cc1c2c(nn1CC(=O)N/N=C/c1ccccn1)-c1ccccc1S(=O)(=O)N2C", "EXPERIMENTAL VALUE": "> 200 µg/mL"}
{"COMPOUND STRUCTURE": "CCOc1cc(/C=N/NC(=O)Cn2nc3c(c2C)N(C)S(=O)(=O)c2ccccc2-3)ccc1O", "EXPERIMENTAL VALUE": "> 200 µg/mL"}
{"COMPOUND STRUCTURE": "COc1cccc(/C=N/NC(=O)Cn2nc3c(c2C)N(C)S(=O)(=O)c2ccccc2-3)c1", "EXPERIMENTAL VALUE": "> 200 µg/mL"}
{"COMPOUND STRUCTURE": "Cc1c2c(nn1CC(=O)N/N=C/c1ccc(O)cc1O)-c1ccccc1S(=O)(=O)N2C", "EXPERIMENTAL VALUE": "> 200 µg/mL"}
{"COMPOUND STRUCTURE": "Cc1c2c(nn1CC(=O)N/N=C/c1ccc(F)cc1)-c1ccccc1S(=O)(=O)N2C", "EXPERIMENTAL VALUE": "> 200 µg/mL"}
